Assay: Metabolic stability in human hepatocytes
Assay type: in vitro ADME
Conditions: cryopreserved human hepatocytes, 1 μM compound, 37° C., up to 90 min, read-out: Metabolic stability in hepatocytes, in vitro t1/2, Human
quantity: half-life at 1 μM

- molecule: "CC(NC(=O)c1ccc(CN)cc1)c1cccc2c(-c3ccc(CN4CCOCC4)nc3)c(C(=O)O)[nH]c12 (stereo not shown)"
  half-life at 1 μM: "> 6.67 h"
- molecule: "CC(c1cccc2c(-c3ccc(CS(C)(=O)=O)c(F)c3)c(C(=O)O)[nH]c12)n1cc(CCC2(N)CC2)oc1=O (stereo not shown)"
  half-life at 1 μM: "> 6.67 h"

Give a short answer stating reported half-life at 1 μM for `C[C@@H](c1cccc2c(-c3ccnc(O)c3)c(C(=O)O)[nH]c12)N1C[C@]2(C[C@@H](CN)C2)OC1=O` .
< 2.5 h

Give a short answer stating reported half-life at 1 μM for CC(C)c1cccc2c(-c3cc(Cl)cc(Cl)c3)c(C(=O)O)[nH]c12 [Prior Art Compound 76, reference compound] .
< 2.5 h

###

System: Acinetobacter baumannii NDM-1
Assay: Antibiotic susceptibility testing (MIC), AB NDM-1
Type: cell-based
Conditions: agar or broth dilution (CLSI/EUCAST)
quantity: MIC values AB NDM-1

- molecule: "C[C@@H](c1cccc2c(-c3ccc(CS(C)(=N)=O)c(F)c3)c(C(=O)O)[nH]c12)N1C[C@]2(C[C@@H](CN)C2)OC1=O (stereo partly shown)"
  MIC values AB NDM-1: "B (B MIC values 2 ÷ 8)"
- molecule: "C[C@@H](c1cccc2c(-c3ccc(CS(C)(=N)=O)c(F)c3)c(C(=O)O)[nH]c12)n1cc(CN2CC(N)C2)oc1=O (stereo partly shown)"
  MIC values AB NDM-1: "B (B MIC values 2 ÷ 8)"
- molecule: "C[C@H](NC(=O)c1ccc(CN)cc1)c1cccc2c(-c3ccc(CN4CCOCC4)nc3)c(C(=O)O)[nH]c12"
  MIC values AB NDM-1: "A (A = MIC values ≤ 1)"
- molecule: "C[C@@H](c1cccc2c(-c3ccc(NS(C)(=O)=O)c(F)c3)c(C(=O)O)[nH]c12)n1cc(CN2CC(N)C2)oc1=O"
  MIC values AB NDM-1: "A (A = MIC values ≤ 1)"
- molecule: "C[C@@H](c1cccc2c(-c3ccnc(N)c3)c(C(=O)O)[nH]c12)N1C[C@]2(C[C@@H](CN)C2)OC1=O"
  MIC values AB NDM-1: "C (C = MIC values > 8)"
- molecule: "C[C@@H](c1cccc2c(-c3c(F)cc(NS(C)(=O)=O)cc3F)c(C(=O)O)[nH]c12)N1C[C@]2(C[C@@H](CN)C2)OC1=O"
  MIC values AB NDM-1: "C (C = MIC values > 8)"

Give a short answer stating reported MIC values AB NDM-1 for `COc1ncc(-c2c(C(=O)O)[nH]c3c([C@H](C)N4C[C@]5(C[C@@H](CN)C5)OC4=O)cccc23)cc1O` .
B (B MIC values 2 ÷ 8)

###

IC50 values for the molecules below.
Molecular target: VIM-2 (Escherichia coli)
Test: MBL inhibition, FC-5 fluorescence assay, VIM-2
Format: biochemical
Conditions: FC-5 cephalosporin substrate, ranges of obtained pIC50, read-out: pIC50 VIM-2 (converted)

- molecule: "C[C@@H](c1cccc2c(-c3cn[nH]c(=O)c3)c(C(=O)O)[nH]c12)N1C[C@]2(C[C@@H](CN)C2)OC1=O"
  target.of.assay: "VIM-2 (Escherichia coli)"
  value.measured: "0.1 to 1 nM"
- molecule: "C[C@@H](c1cccc2c(-c3ccc(CS(C)(=N)=O)c(F)c3)c(C(=O)O)[nH]c12)n1cc(CN2CC(N)C2)oc1=O (some centres unmarked)"
  target.of.assay: "VIM-2 (Escherichia coli)"
  value.measured: "1 to 10 nM"
- molecule: "C[C@@H](c1cccc2cc(C(=O)O)[nH]c12)N1C[C@]2(C[C@@H](CN)C2)OC1=O"
  target.of.assay: "VIM-2 (Escherichia coli)"
  value.measured: "> 10 nM"
- molecule: "CC(C)c1cccc2c(-c3cc(Cl)cc(Cl)c3)c(C(=O)O)[nH]c12 [Prior Art Compound 76, reference compound]"
  target.of.assay: "VIM-2 (Escherichia coli)"
  value.measured: "0.1 to 1 nM"

Give a short answer stating reported IC50 for `C[C@@H](c1cccc2c(-c3ccc(CS(C)(=O)=O)c(F)c3)c(C(=O)O)[nH]c12)N1CC2(CN(C(=N)N)C2)OC1=O` .
0.1 to 1 nM

Give a short answer stating reported IC50 for `C[C@@H](c1cccc2c(-c3ccnc(O)c3)c(C(=O)O)[nH]c12)N1C[C@]2(C[C@@H](CN)C2)OC1=O` .
0.1 to 1 nM
